Numbers sourced from patent US7074789B2.

In this section, each of the molecules is paired with its reported pIC50.
- assayed-target: IGFR-1 (Homo sapiens, UniProt P08069)
- Construct: Kinases are expressed as either kinase domains or full length constructs; made in house
- protocol-notes: Kinase inhibition assay (33P transfer), IGFR-1
- Format: biochemical
- test-settings: Table 2, kinase inhibition class
pIC50: −log10 of the molar value.

Before answering, review these 2 worked examples.
{"columns": ["sample-smiles", "pIC50"],
 "data": [
  ["Fc1cccc(Nc2ncnc(-c3cccs3)n2)c1", "< 4.78"],
  ["COCCOc1ccc(Nc2ncnc(Nc3ccc(C)c(F)c3)n2)cc1OCCOC", "< 4.99"]
]}

We next turn to a different molecule, shown below.
Test system IGFR-1 (Homo sapiens, UniProt P08069); read-out pIC50; what value for COc1cc(Nc2ncnc(Nc3cc(-c4ccccc4)nn3C)n2)cc(OC)c1OC ?
5.26 to 6.03

---

In this section, each of the molecules is paired with its reported IC50.
- assayed-target: EGFR (Homo sapiens, UniProt P00533)
- Construct: Kinases are expressed as either kinase domains or full length constructs; made in house
- Sequence (P00533 25-1210, species assumed): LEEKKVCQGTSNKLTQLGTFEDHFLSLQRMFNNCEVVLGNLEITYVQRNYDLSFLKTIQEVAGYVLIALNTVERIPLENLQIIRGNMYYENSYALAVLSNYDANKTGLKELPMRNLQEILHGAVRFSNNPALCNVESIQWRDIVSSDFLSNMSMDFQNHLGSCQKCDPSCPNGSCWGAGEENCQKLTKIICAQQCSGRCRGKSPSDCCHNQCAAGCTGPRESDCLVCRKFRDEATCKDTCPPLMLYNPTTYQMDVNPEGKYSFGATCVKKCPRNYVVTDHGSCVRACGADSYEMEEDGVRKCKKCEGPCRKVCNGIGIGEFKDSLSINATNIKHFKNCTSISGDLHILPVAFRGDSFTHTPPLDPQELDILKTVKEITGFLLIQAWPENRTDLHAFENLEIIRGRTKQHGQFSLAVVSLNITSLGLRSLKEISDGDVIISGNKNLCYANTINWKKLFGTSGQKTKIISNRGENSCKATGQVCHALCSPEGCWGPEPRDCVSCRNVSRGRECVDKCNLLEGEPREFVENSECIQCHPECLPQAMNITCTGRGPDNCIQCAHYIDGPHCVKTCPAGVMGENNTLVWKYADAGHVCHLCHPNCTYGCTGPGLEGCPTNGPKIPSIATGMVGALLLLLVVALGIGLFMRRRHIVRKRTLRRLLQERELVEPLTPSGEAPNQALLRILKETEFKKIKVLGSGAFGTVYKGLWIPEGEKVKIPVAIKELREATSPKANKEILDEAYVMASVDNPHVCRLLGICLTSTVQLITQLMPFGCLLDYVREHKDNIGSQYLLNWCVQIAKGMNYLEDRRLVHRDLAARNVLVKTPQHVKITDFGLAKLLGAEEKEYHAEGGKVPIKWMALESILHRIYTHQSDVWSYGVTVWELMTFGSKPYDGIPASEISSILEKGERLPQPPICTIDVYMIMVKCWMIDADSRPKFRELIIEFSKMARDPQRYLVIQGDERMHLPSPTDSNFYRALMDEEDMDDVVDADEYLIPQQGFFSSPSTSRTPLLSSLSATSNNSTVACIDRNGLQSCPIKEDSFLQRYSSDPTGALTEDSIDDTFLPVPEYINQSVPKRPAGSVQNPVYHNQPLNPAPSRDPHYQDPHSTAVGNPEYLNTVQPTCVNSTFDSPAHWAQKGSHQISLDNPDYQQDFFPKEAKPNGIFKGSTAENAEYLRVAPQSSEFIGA
- protocol-notes: Kinase inhibition assay (33P transfer), EGFR
- Format: biochemical
- test-settings: Table 2, kinase inhibition class; read-out: EGFR-1

Before answering, review these 4 worked examples.
{"columns": ["molecule", "IC50"],
 "data": [
  ["COc1cc(Nc2ncnc(-n3ccc4cc(Cl)ccc43)n2)cc(OC)c1OC [Compound 198]", "> 10.9 µM"],
  ["CCN(c1ccccc1)c1ncnc(Nc2cc(OC)c(OC)c(OC)c2)n1 [Compound 536]", "< 1.05 µM"],
  ["COc1cc(Nc2ncnc(Nc3cnc4ccccc4c3)n2)cc(OC)c1OC [Compound 99]", "0.989 to 5.93 µM"],
  ["COc1cc(Nc2ncnc(NCc3ccccc3)n2)cc(OC)c1OC [Compound 630]", "< 1.09 µM"]
]}

We next turn to a different molecule, shown below.
Query (molecule): COc1ccc(Nc2ncnc(-c3cccs3)n2)cc1OC [Compound 357] ; field requested: IC50
> 14.3 µM

---

In this section, each of the compounds is paired with its reported pIC50.
- assayed-target: Kdr (Homo sapiens, UniProt P35968)
- Construct: Kinases are expressed as either kinase domains or full length constructs; made in house
- Sequence (P35968 20-1356, species assumed): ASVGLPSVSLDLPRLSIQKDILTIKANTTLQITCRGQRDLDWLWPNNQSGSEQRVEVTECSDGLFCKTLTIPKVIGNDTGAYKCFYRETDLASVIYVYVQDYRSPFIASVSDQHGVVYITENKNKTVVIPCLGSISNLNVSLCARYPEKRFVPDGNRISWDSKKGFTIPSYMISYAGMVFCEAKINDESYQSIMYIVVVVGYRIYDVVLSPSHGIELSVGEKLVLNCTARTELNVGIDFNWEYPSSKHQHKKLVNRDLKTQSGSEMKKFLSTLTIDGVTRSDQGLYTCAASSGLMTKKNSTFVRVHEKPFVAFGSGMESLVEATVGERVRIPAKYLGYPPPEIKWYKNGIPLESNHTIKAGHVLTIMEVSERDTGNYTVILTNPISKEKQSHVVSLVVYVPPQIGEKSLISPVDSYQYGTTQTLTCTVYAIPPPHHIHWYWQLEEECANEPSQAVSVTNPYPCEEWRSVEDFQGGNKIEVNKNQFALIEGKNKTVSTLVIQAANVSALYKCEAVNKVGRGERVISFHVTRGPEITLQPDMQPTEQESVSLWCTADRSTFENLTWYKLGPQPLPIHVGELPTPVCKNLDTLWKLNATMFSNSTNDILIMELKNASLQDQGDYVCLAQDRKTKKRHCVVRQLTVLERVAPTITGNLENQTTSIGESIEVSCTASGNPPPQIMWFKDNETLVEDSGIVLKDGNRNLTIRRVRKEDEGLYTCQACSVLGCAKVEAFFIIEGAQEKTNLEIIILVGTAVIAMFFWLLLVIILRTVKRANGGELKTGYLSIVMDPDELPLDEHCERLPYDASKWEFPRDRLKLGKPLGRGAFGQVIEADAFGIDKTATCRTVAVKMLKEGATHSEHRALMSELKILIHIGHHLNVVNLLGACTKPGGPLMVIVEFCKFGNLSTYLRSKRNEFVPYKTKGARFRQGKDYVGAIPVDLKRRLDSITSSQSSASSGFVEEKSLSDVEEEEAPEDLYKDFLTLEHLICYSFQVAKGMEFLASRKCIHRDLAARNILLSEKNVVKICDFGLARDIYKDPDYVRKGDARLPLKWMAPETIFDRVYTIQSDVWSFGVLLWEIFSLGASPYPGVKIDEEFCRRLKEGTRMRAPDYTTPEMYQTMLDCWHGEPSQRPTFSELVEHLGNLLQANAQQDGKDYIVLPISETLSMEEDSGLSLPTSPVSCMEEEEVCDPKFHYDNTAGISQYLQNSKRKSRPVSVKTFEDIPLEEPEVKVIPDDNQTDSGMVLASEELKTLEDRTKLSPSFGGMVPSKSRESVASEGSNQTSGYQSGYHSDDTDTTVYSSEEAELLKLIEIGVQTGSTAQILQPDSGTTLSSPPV
- protocol-notes: Kinase inhibition assay (33P transfer), Kdr
- Format: biochemical
- test-settings: read-out: KDR-1
pIC50: −log10 of the molar value.

Query (compound): COc1cc(Nc2ncnc(N(C)c3ccc(F)c(Cl)c3)n2)cc(OC)c1OC ; field requested: pIC50
5.24 to 6.02

Query (compound): COc1cc(Nc2ncnc(-n3c(N[C@H](CO)c4ccccc4)nc4ccccc43)n2)cc(OC)c1OC ; field requested: pIC50
> 6.11

Query (compound): CC(C)(C)c1cc(Nc2ncnc(Nc3cccc(Cl)c3)n2)[nH]n1 ; field requested: pIC50
5.16 to 5.93

Query (compound): Nc1nc2ccccc2n1-c1ncnc(Nc2ccc(N3CCOCC3)cc2)n1 ; field requested: pIC50
5.21 to 5.99

Query (compound): CC(C)(C)OC(=O)NCc1cccc(Nc2ncnc(Nc3cc(-c4ccco4)n[nH]3)n2)c1 ; field requested: pIC50
5.27 to 6.05

---

- assayed-target: Kdr (Homo sapiens)
- Construct: Kinases are expressed as either kinase domains or full length constructs; made in house
- protocol-notes: Kinase inhibition assay (33P transfer), Kdr
- Format: biochemical
- test-settings: read-out: KDR-1
assay-endpoint: IC50

Before answering, review these 5 worked examples.
{"columns": ["compound", "test-value"],
 "data": [
  ["COc1cc(Nc2ncnc(-n3c(NCc4ccc(C)cc4)nc4ccccc43)n2)cc(OC)c1OC [Compound 516]", "< 0.804 µM"],
  ["Fc1ccc(Nc2ncnc(Nc3ccc4cn[nH]c4c3)n2)cc1Cl [Compound 719]", "1.12 to 6.75 µM"],
  ["COc1cc(Nc2ncnc(N(C)c3cccc(Cl)c3)n2)cc(OC)c1OC [Compound 603]", "< 0.995 µM"],
  ["COc1cc(Nc2ncnc(Nc3cc(C(F)(F)F)ccc3F)n2)cc(OC)c1OC [Compound 618]", "0.91 to 5.46 µM"],
  ["COC(=O)c1ccc(-c2cc(Nc3ncnc(Nc4cccc(CC(N)=O)c4)n3)[nH]n2)cc1 [Compound 577]", "0.9 to 5.4 µM"]
]}

Query (compound): Cc1ccc2c(c1)CCCN2c1ncnc(NCCc2c[nH]c3ccccc23)n1 [Compound 768] ; field requested: IC50
9.1 to 11.7 µM

Query (compound): CN(c1cccc(Cl)c1)c1ncnc(Nc2cc(C(C)(C)C)on2)n1 [Compound 754] ; field requested: IC50
> 12.5 µM

Query (compound): CC(C)(C)c1ccc(Nc2ncnc(-n3c(N)nc4ccccc43)n2)cc1 [Compound 525] ; field requested: IC50
6.68 to 9.74 µM

---

- assayed-target: c-Met (Homo sapiens)
- Construct: Kinases are expressed as either kinase domains or full length constructs; made in house
- Sequence (P08581 25-1390): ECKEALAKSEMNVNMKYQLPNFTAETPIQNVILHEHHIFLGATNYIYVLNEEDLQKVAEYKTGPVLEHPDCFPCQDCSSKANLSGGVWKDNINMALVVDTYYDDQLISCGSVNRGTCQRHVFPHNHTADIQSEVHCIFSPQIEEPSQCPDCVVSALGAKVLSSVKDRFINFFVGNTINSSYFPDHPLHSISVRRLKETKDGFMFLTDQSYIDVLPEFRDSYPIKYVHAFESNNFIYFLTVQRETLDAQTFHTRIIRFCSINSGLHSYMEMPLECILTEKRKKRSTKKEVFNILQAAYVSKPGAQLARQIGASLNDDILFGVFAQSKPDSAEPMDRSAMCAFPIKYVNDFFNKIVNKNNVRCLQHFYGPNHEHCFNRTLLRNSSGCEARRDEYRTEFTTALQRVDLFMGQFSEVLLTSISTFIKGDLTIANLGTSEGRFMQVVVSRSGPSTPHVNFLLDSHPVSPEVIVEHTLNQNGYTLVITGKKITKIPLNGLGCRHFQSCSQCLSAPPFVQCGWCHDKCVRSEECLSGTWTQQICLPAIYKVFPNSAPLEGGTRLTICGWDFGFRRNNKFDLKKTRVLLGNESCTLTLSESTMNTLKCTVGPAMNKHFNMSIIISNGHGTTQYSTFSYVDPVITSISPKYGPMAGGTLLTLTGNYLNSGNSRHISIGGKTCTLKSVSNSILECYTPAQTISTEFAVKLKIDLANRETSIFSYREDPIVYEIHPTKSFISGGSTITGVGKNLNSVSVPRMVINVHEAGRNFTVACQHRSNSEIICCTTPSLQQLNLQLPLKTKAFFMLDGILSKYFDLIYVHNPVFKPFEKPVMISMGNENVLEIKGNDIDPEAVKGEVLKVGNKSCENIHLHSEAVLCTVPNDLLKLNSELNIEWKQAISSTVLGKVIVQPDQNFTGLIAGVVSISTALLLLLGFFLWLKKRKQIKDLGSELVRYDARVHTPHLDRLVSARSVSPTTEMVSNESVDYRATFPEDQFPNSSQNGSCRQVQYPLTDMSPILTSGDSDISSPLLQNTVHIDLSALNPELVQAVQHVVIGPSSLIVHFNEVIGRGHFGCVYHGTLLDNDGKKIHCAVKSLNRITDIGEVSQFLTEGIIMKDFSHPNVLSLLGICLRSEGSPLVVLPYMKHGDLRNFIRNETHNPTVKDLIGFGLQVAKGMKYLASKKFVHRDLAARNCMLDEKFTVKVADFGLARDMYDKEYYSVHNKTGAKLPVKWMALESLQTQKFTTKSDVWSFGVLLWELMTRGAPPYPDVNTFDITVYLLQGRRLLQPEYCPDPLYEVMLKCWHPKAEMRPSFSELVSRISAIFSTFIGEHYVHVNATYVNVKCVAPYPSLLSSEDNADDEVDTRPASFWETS
- protocol-notes: Kinase inhibition assay (33P transfer), c-Met
- Format: biochemical
- test-settings: Table 2, kinase inhibition class; read-out: Met-1
In this section, each of the compounds is paired with its reported IC50.

Before answering, review these 6 worked examples.
{"columns": ["compound", "assayed-target", "IC50"],
 "data": [
  ["CC(=O)N1CCc2cc(Nc3ncnc(N4CCCc5cc(C)ccc54)n3)ccc21", "c-Met (Homo sapiens)", "< 0.999 µM"],
  ["COc1cc(Nc2ncnc(N)n2)cc(OC)c1OC [Compound 1024]", "c-Met (Homo sapiens)", "> 16.2 µM"],
  ["O=C(O)Cc1cccc(Nc2ncnc(-n3c(NCc4ccccc4)nc4ccccc43)n2)c1", "c-Met (Homo sapiens)", "7.75 to 9.97 µM"],
  ["CN(c1cccc(Cl)c1)c1ncnc(Nc2ccccc2)n1", "c-Met (Homo sapiens)", "1.28 to 7.7 µM"],
  ["c1ccc(Cn2ncc3cc(Nc4ncnc(Nc5ccc(N6CCCCC6)cc5)n4)ccc32)cc1", "c-Met (Homo sapiens)", "7.34 to 9.44 µM"],
  ["COc1ccc2c(c1)c(CCN(C)C)cn2-c1ncnc(Nc2cc(OC)c(OC)c(OC)c2)n1", "c-Met (Homo sapiens)", "> 9.4 µM"]
]}

Query (compound): COc1ccc(Nc2ccc(Nc3ncnc(Nc4cc(OC)c(OC)c(OC)c4)n3)cc2)cc1 ; field requested: IC50
5.06 to 7.38 µM

Query (compound): COc1cc(C)c(Nc2ncnc(-c3cccs3)n2)cc1OC ; field requested: IC50
> 13.7 µM

Query (compound): COC(=O)Cc1cccc(Nc2ncnc(-n3c(NCc4ccc(OC)cc4)nc4ccccc43)n2)c1 ; field requested: IC50
> 9.08 µM

Query (compound): COc1cc(Nc2ncnc(-n3c(N(C)C)nc4ccccc43)n2)cc(OC)c1OC ; field requested: IC50
> 10.7 µM

Query (compound): COc1cc(Nc2ncnc(Nc3ccc4c(c3)Cc3ccccc3-4)n2)cc(OC)c1OC ; field requested: IC50
> 10.2 µM

Query (compound): COc1cc(Nc2ncnc(Nc3ccc(Oc4ccccc4)cc3)n2)cc(OC)c1OC ; field requested: IC50
7.86 to 10.1 µM

---

- assayed-target: Itk (Homo sapiens, UniProt Q08881)
- Construct: Kinases are expressed as either kinase domains or full length constructs; made in house
- Sequence (Q08881 1-620): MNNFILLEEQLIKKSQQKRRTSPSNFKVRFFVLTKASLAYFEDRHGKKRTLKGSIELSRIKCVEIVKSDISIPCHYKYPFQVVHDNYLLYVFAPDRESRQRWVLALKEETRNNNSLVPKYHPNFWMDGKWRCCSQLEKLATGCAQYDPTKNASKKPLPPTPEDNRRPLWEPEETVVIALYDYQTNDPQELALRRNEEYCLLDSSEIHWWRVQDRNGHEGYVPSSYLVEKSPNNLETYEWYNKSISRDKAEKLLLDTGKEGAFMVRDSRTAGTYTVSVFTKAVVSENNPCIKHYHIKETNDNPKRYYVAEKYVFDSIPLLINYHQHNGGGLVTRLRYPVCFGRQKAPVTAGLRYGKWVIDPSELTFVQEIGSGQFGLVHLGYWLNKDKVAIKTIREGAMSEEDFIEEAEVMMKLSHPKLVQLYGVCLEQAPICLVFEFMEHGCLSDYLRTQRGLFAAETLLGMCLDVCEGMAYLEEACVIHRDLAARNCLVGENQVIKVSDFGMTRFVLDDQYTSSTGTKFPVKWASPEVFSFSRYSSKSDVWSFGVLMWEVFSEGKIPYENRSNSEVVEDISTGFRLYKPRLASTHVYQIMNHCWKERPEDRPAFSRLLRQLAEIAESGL
- protocol-notes: Kinase inhibition assay (33P transfer), Itk
- Type: biochemical
- test-settings: read-out: Itk-1
pIC50: −log10 of the molar value.
In this section, each of the compounds is paired with its reported pIC50.

Before answering, review these 5 worked examples.
{"columns": ["sample-smiles", "pIC50"],
 "data": [
  ["COc1cc(Nc2ncnc(-n3c(C)nc4ccccc43)n2)cc(OC)c1OC", "5.05 to 5.21"],
  ["O=c1[nH]c2ccccc2n1-c1ncnc(Nc2cccc3ncccc23)n1", "< 4.90"],
  ["CN(C)c1ccc(Nc2ncnc(-n3c(N)nc4ccccc43)n2)cc1", "5.16 to 5.94"],
  ["COc1cc(Nc2ncnc(Nc3cccc(NC(=O)O[C@@H]4CCOC4)c3)n2)cc(OC)c1OC", "5.14 to 5.30"],
  ["COc1ccc([C@H](C)Nc2nc3ccccc3n2-c2ncnc(Nc3cc(OC)c(OC)c(OC)c3)n2)cc1", "< 5.07"]
]}

Query (compound): CN(c1cccc(Cl)c1)c1ncnc(Nc2ccc3[nH]ccc3c2)n1 ; field requested: pIC50
< 4.89

Query (compound): COc1cc(Nc2ncnc(-n3c(N[C@H](CO)c4ccccc4)nc4ccccc43)n2)cc(OC)c1OC ; field requested: pIC50
< 5.06

Query (compound): COc1cc(Nc2ncnc(Nc3ccc(Br)c4ccccc34)n2)cc(OC)c1OC ; field requested: pIC50
< 5.03
